- System: E. faecalis MGH-2 EF 1-1
Give measured MIC90 for each item. Keep answers brief.
One number for each entry, in µg/mL.

Look over these answered cases.
1. CC(=O)NC[C@H]1CN(c2cc(F)c3c(c2)CC(=O)N3CCF)C(=O)O1 [Example 11] : 2
2. CC(=O)NC[C@H]1CN(c2cc(F)c3c(c2)CC(=O)N3C)C(=O)O1 [Example 3] : 4

List reported MIC90 for each of these compounds:
1. CCC(C)N1C(=O)Cc2cc(N3C[C@H](CNC(C)=O)OC3=O)ccc21 (stereo partly shown) [Example 24]
2. CCCN1C(=O)Cc2cc(N3C[C@H](CNC(C)=O)OC3=O)ccc21 [Example 17]
3. CC(=O)NC[C@H]1CN(c2ccc3c(c2)CC(=O)N3CC2CC2)C(=O)O1 [Example 26]
4. CCC(=O)NC[C@H]1CN(c2cc(F)c3c(c2)CC(=O)N3C(C)C)C(=O)O1 [Example 16]
5. CCN1C(=O)Cc2cc(N3C[C@H](CNC(C)=O)OC3=O)cc(F)c21 [Example 7]
6. CC(=O)NC[C@H]1CN(c2ccc3c(c2)CC(=O)N3CCF)C(=O)O1 [Example 9]
7. CCC(=O)NC[C@H]1CN(c2cc(F)c3c(c2)CC(=O)N3C)C(=O)O1 [Example 4]

1: 4; 2: 4; 3: 4; 4: 4; 5: 2; 6: 2; 7: 4

List reported MIC90 for each of these compounds:
1. CCC(=O)NC[C@H]1CN(c2cc(F)c3c(c2)CC(=O)N3CC)C(=O)O1 [Example 8]
2. CC(=O)NC[C@H]1CN(c2ccc3c(c2)CC(=O)N3C(C)CF)C(=O)O1 (stereo partly shown) [Example 28]
3. CCC(=O)NC[C@H]1CN(c2ccc3c(c2)CC(=O)N3C(C)CC)C(=O)O1 (stereo partly shown) [Example 25]
4. CCC(=O)NC[C@H]1CN(c2cc(F)c3c(c2)CC(=O)N3CCF)C(=O)O1 [Example 12]

[2, 4, 8, 4]

List reported MIC90 for each of these compounds:
1. CCC(=O)NC[C@H]1CN(c2ccc3c(c2)CC(=O)N3CC2CC2)C(=O)O1 [Example 27]
2. CCC(=O)NC[C@H]1CN(c2ccc3c(c2)CC(=O)N3C)C(=O)O1 [Example 2]
3. CCCN1C(=O)Cc2cc(N3C[C@H](CNC(=O)CC)OC3=O)ccc21 [Example 18]
4. CC(=O)NC[C@H]1CN(c2ccc3c(c2)CC(=O)N3C)C(=O)O1 [Example 1]
5. CCC(=O)NC[C@H]1CN(c2ccc3c(c2)CC(=O)N3C2CC2)C(=O)O1 [Example 22]

8
2
8
2
4
